Test system: Mus musculus
experimentNotes: Tested for biodistribution of radioactivity after 1 hr of intravenous injection in mice liver
Assay type: ADME, organism-based
testContext: in vivo
measurementName: Dose/organ (%)
Numbers only; they are read as %.

Req: Dose/organ lookup needed for NCCCCC(N)C(=O)NC(=O)c1cccc(I)c1 (stereo not given) , thanks.
Resp: 14.38

Req: For the compound shown here, CN[C@@H](CSC1CC(=O)N(CCOC(=O)CNC(=O)c2cccc(I)c2)C1=O)C(=O)O (stereo not given in full) , give the reported Dose/organ.
Resp: 3.98

Req: # get_value(readout='Dose/organ', item= "CN[C@@H](CCCCN)C(=O)NC(=O)c1cccc(I)c1" )
Resp: 6.96

Req: Which Dose/organ is listed for "CCc1ccc(O)c(I)c1" ?
Resp: 3.68

Req: If you can, please state the reported Dose/organ value of N[C@@H](CSC1CC(=O)N(CCOC(=O)CNC(=O)c2cccc(I)c2)C1=O)C(=O)O (stereo not given in full) .
Resp: 8.51
